tested on: Lactococcus lactis subsp. lactis MM19; assay: Antibiotic MIC plates (resistance profile); assay type: cell-based; details: Lactococcus lactis, MM19; GPN3F plate; median of two repetitions; read-out: MIC
Reported MIC by item:
reported.property: MIC (µg/mL)

>>> experimental_result("CCC[C@@H]1C[C@@H](C(=O)N[C@@H]([C@H]2O[C@H](SC)[C@H](O)[C@@H](O)[C@H]2O)[C@H](C)Cl)N(C)C1")
0.25
>>> experimental_result("C[C@H]1COc2c(N3CCN(C)CC3)c(F)cc3c(=O)c(C(=O)O)cn1c23")
0.5

* * *

tested on: Lactococcus lactis subsp. lactis MM19; assay: Antibiotic MIC plates (resistance profile); format: cell-based; details: Lactococcus lactis, MM19; GPN3F plate; median of two repetitions; read-out: MIC
reported.property: MIC

>>> experimental_result("CO/N=C(\\C(=O)N[C@@H]1C(=O)N2C(C(=O)O)=C(CSc3nc(=O)c(=O)[nH]n3C)CS[C@H]12)c1csc(N)n1")
"< 8 µg/mL"
>>> experimental_result("CO[C@H]1/C=C/O[C@@]2(C)Oc3c(C)c(O)c4c(O)c(c(/C=N/N5CCN(C)CC5)c(O)c4c3C2=O)NC(=O)/C(C)=C\\C=C\\[C@H](C)[C@H](O)[C@@H](C)[C@@H](O)[C@@H](C)[C@H](OC(C)=O)[C@@H]1C")
"> 4 µg/mL"
>>> experimental_result("CN(C)[C@@H]1C(O)=C(C(N)=O)C(=O)[C@@]2(O)C(O)=C3C(=O)c4c(O)cccc4[C@@](C)(O)[C@H]3C[C@@H]12")
"< 2 µg/mL"
>>> experimental_result("CC(=O)NC[C@H]1CN(c2ccc(N3CCOCC3)c(F)c2)C(=O)O1")
"2 µg/mL"
>>> experimental_result("CC1(C)S[C@@H]2[C@H](NC(=O)[C@H](N)c3ccccc3)C(=O)N2[C@H]1C(=O)O")
"0.12 to 0.25 µg/mL"
>>> experimental_result("O=C(O)c1cn(C2CC2)c2cc(N3CCNCC3)c(F)cc2c1=O")
"2 µg/mL"

* * *

tested on: Pediococcus acidilactici MM33; test: Antibiotic MIC plates (resistance profile); format: cell-based; settings: Pediococcus acidilactici, MM33, MM33; GPN3F plate; median of two repetitions; read-out: MIC
reported.property: MIC

>>> experimental_result("CO[C@H]1/C=C/O[C@@]2(C)Oc3c(C)c(O)c4c(O)c(c(/C=N/N5CCN(C)CC5)c(O)c4c3C2=O)NC(=O)/C(C)=C\\C=C\\[C@H](C)[C@H](O)[C@@H](C)[C@@H](O)[C@@H](C)[C@H](OC(C)=O)[C@@H]1C")
"0.5 to 1 mg/L"
>>> experimental_result("C[C@H]1COc2c(N3CCN(C)CC3)c(F)cc3c(=O)c(C(=O)O)cn1c23")
"> 8 mg/L"
>>> experimental_result("[H]/N=C(/N)N[C@H]1[C@H](O)[C@@H](O)[C@H](O[C@@H]2O[C@@H](C)[C@](O)(C=O)[C@H]2O[C@@H]2O[C@@H](CO)[C@H](O)[C@@H](O)[C@@H]2NC)[C@@H](N/C(N)=N\\[H])[C@@H]1O")
"< 1000 mg/L"

* * *

system: Pediococcus acidilactici MM33; experiment: Antibiotic MIC plates (resistance profile); type: cell-based; settings: Pediococcus acidilactici, MM33, MM33; GPN3F plate; median of two repetitions; read-out: MIC
reported.property: MIC

>>> experimental_result("CCC[C@@H]1C[C@@H](C(=O)N[C@@H]([C@H]2O[C@H](SC)[C@H](O)[C@@H](O)[C@H]2O)[C@H](C)Cl)N(C)C1")
"< 0.12 mg/L"
>>> experimental_result("CC1(C)S[C@@H]2[C@H](NC(=O)[C@H](N)c3ccccc3)C(=O)N2[C@H]1C(=O)O")
"2 mg/L"
>>> experimental_result("CN(C)[C@@H]1C(O)=C(C(N)=O)C(=O)[C@@]2(O)C(O)=C3C(=O)c4c(O)cccc4[C@@](C)(O)[C@H]3C[C@@H]12")
"> 16 mg/L"

* * *

MIC: recorded values
tested on: Lactococcus lactis subsp. lactis MM19; assay: Antibiotic MIC plates (resistance profile); assay type: cell-based; details: Lactococcus lactis, MM19; ANO2 plate; median of two repetitions; read-out: MIC
reported.property: MIC

>>> experimental_result("CO[C@@]1(NC(=O)Cc2cccs2)C(=O)N2C(C(=O)O)=C(COC(N)=O)CS[C@@H]21")
"> 32 µg/mL"
>>> experimental_result("C[C@@H](O)[C@H]1C(=O)N2C(C(=O)O)=C(SCCN=CN)C[C@H]12")
"0.25 µg/mL"
>>> experimental_result("C[C@@H](O)[C@H]1C(=O)N2C(C(=O)O)=C(S[C@@H]3CN[C@H](C(=O)N(C)C)C3)[C@H](C)[C@H]12")
"< 0.5 µg/mL"
>>> experimental_result("CC1(C)S[C@@H]2[C@H](NC(=O)[C@H](NC(=O)N3CCN(S(C)(=O)=O)C3=O)c3ccccc3)C(=O)N2[C@H]1C(=O)O")
"< 4 µg/mL"
>>> experimental_result("CC1(C)S[C@@H]2[C@H](NC(=O)[C@H](N)c3ccccc3)C(=O)N2[C@H]1C(=O)O")
"< 0.5 µg/mL"
>>> experimental_result("Cc1ncc([N+](=O)[O-])n1CCO")
"> 16 µg/mL"
>>> experimental_result("CO[C@@]1(NC(=O)C2SC(=C(C(N)=O)C(=O)O)S2)C(=O)N2C(C(=O)O)=C(CSc3nnnn3C)CS[C@@H]21 (some centres unmarked)")
"> 64 µg/mL"
>>> experimental_result("CCN1CCN(C(=O)N[C@@H](C(=O)N[C@@H]2C(=O)N3[C@@H]2SC(C)(C)[C@@H]3C(=O)O)c2ccccc2)C(=O)C1=O")
"< 4 µg/mL"
>>> experimental_result("CN(C)[C@@H]1C(O)=C(C(N)=O)C(=O)[C@@]2(O)C(O)=C3C(=O)c4c(O)cccc4[C@@](C)(O)[C@H]3C[C@@H]12")
"0.375 µg/mL"
>>> experimental_result("CCC[C@@H]1C[C@@H](C(=O)N[C@@H]([C@H]2O[C@H](SC)[C@H](O)[C@@H](O)[C@H]2O)[C@H](C)Cl)N(C)C1")
"0.5 µg/mL"
>>> experimental_result("O=C(N[C@H](CO)[C@H](O)c1ccc([N+](=O)[O-])cc1)C(Cl)Cl")
"4 µg/mL"

* * *

test system: Pediococcus acidilactici MM33; assay: Antibiotic MIC plates (resistance profile); type: cell-based; conditions: Pediococcus acidilactici, MM33, MM33; GPN3F plate; median of two repetitions; read-out: MIC
reported.property: MIC

>>> experimental_result("CCCCCCCCCC(=O)N[C@@H](Cc1c[nH]c2ccccc12)C(=O)N[C@H](CC(N)=O)C(=O)N[C@@H](CC(=O)O)C(=O)N[C@@H]1C(=O)NCC(=O)N[C@@H](CCCN)C(=O)N[C@@H](CC(=O)O)C(=O)N[C@H](C)C(=O)N[C@@H](CC(=O)O)C(=O)NCC(=O)N[C@H](CO)C(=O)N[C@@H]([C@H](C)CC(=O)O)C(=O)N[C@@H](CC(=O)c2ccccc2N)C(=O)O[C@@H]1C")
"1 µg/mL"
>>> experimental_result("CO/N=C(\\C(=O)N[C@@H]1C(=O)N2C(C(=O)O)=C(CSc3nc(=O)c(=O)[nH]n3C)CS[C@H]12)c1csc(N)n1")
"16 µg/mL"
>>> experimental_result("CC(=O)NC[C@H]1CN(c2ccc(N3CCOCC3)c(F)c2)C(=O)O1")
"4 to 8 µg/mL"
>>> experimental_result("CC[C@H]1OC(=O)[C@H](C)[C@@H](O[C@H]2C[C@@](C)(OC)[C@@H](O)[C@H](C)O2)[C@H](C)[C@@H](O[C@@H]2O[C@H](C)C[C@H](N(C)C)[C@H]2O)[C@](C)(O)C[C@@H](C)C(=O)[C@H](C)[C@@H](O)[C@]1(C)O")
"< 0.25 µg/mL"

* * *

MIC values by entry
test system: Lactobacillus rhamnosus GG (ATCC 53103); experiment: Antibiotic MIC plates (resistance profile); type: cell-based; conditions: Lacticaseibacillus rhamnosus, ATCC53103, L. rhamnosus GG; GPN3F plate; median of two repetitions; read-out: MIC
reported.property: MIC

>>> experimental_result("CC[C@H]1OC(=O)[C@H](C)[C@@H](O[C@H]2C[C@@](C)(OC)[C@@H](O)[C@H](C)O2)[C@H](C)[C@@H](O[C@@H]2O[C@H](C)C[C@H](N(C)C)[C@H]2O)[C@](C)(O)C[C@@H](C)C(=O)[C@H](C)[C@@H](O)[C@]1(C)O")
"< 0.25 µg/mL"
>>> experimental_result("CN(C)[C@@H]1C(O)=C(C(N)=O)C(=O)[C@@]2(O)C(O)=C3C(=O)c4c(O)cccc4[C@@](C)(O)[C@H]3C[C@@H]12")
"< 2 µg/mL"
>>> experimental_result("CCC[C@@H]1C[C@@H](C(=O)N[C@@H]([C@H]2O[C@H](SC)[C@H](O)[C@@H](O)[C@H]2O)[C@H](C)Cl)N(C)C1")
"< 0.12 µg/mL"
>>> experimental_result("CO/N=C(\\C(=O)N[C@@H]1C(=O)N2C(C(=O)O)=C(CSc3nc(=O)c(=O)[nH]n3C)CS[C@H]12)c1csc(N)n1")
"32 to 64 µg/mL"
>>> experimental_result("[H]/N=C(/N)N[C@H]1[C@H](O)[C@@H](O)[C@H](O[C@@H]2O[C@@H](C)[C@](O)(C=O)[C@H]2O[C@@H]2O[C@@H](CO)[C@H](O)[C@@H](O)[C@@H]2NC)[C@@H](N/C(N)=N\\[H])[C@@H]1O")
"< 1000 µg/mL"
>>> experimental_result("C[C@H]1COc2c(N3CCN(C)CC3)c(F)cc3c(=O)c(C(=O)O)cn1c23")
"2 to 4 µg/mL"
>>> experimental_result("CCCCCCCCCC(=O)N[C@@H](Cc1c[nH]c2ccccc12)C(=O)N[C@H](CC(N)=O)C(=O)N[C@@H](CC(=O)O)C(=O)N[C@@H]1C(=O)NCC(=O)N[C@@H](CCCN)C(=O)N[C@@H](CC(=O)O)C(=O)N[C@H](C)C(=O)N[C@@H](CC(=O)O)C(=O)NCC(=O)N[C@H](CO)C(=O)N[C@@H]([C@H](C)CC(=O)O)C(=O)N[C@@H](CC(=O)c2ccccc2N)C(=O)O[C@@H]1C")
"2 µg/mL"
>>> experimental_result("O=C(O)c1cn(C2CC2)c2cc(N3CCNCC3)c(F)cc2c1=O")
"1 µg/mL"
>>> experimental_result("CC(=O)NC[C@H]1CN(c2ccc(N3CCOCC3)c(F)c2)C(=O)O1")
"1 to 2 µg/mL"
>>> experimental_result("CO[C@H]1/C=C/O[C@@]2(C)Oc3c(C)c(O)c4c(O)c(c(/C=N/N5CCN(C)CC5)c(O)c4c3C2=O)NC(=O)/C(C)=C\\C=C\\[C@H](C)[C@H](O)[C@@H](C)[C@@H](O)[C@@H](C)[C@H](OC(C)=O)[C@@H]1C")
"< 0.5 µg/mL"
>>> experimental_result("CC1(C)S[C@@H]2[C@H](NC(=O)[C@H](N)c3ccccc3)C(=O)N2[C@H]1C(=O)O")
"1 µg/mL"

Where do these numbers come from? They come from patent US20110236359A1.
